- assay_system: Antithrombin III (plasma purified human AT-III, Molecular Innovations), as AT-III/UFH complex
The proteins listed here are annotated with their K0.5-mut/K0.5-wt (against Catalyst Biosciences WT FIXa).
measurement_name: K0.5-mut/K0.5-wt (against Catalyst Biosciences WT FIXa)

{"protein": "FIXa-R318Y/R338E/T343R/N346Y/R403E/E410N (protein) chain 1: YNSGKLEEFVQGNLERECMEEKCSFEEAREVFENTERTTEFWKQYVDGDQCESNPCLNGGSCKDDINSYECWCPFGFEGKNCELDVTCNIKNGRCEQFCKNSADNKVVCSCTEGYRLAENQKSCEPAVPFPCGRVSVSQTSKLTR chain 2: VVGGEDAKPGQFPWQVVLNGKVDAFCGGSIVNEKWIVTAAHCVETGVKITVVAGEHNIEETEHTEQKRNVIRIIPHHNYNAAINKYNHDIALLELDEPLVLNSYVTPICIADKEYTNIFLKFGSGYVSGWGRVFHKGYSALVLQYLRVPLVDRATCLESTKFRIYYNMFCAGFHEGGRDSCQGDSGGPHVTEVEGTSFLTGIISWGEECAMKGKYGIYTKVSEYVNWIKNKTKLT", "readout_qualifier": ">", "endpoint_value": 517}
{"protein": "FIXa-R318Y/R338E/T343R/N346D/R403E/E410N (protein) chain 1: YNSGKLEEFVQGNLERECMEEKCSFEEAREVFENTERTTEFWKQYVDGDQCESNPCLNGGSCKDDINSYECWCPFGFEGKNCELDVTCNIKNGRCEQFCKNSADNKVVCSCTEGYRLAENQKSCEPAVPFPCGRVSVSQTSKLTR chain 2: VVGGEDAKPGQFPWQVVLNGKVDAFCGGSIVNEKWIVTAAHCVETGVKITVVAGEHNIEETEHTEQKRNVIRIIPHHNYNAAINKYNHDIALLELDEPLVLNSYVTPICIADKEYTNIFLKFGSGYVSGWGRVFHKGYSALVLQYLRVPLVDRATCLESTKFRIYDNMFCAGFHEGGRDSCQGDSGGPHVTEVEGTSFLTGIISWGEECAMKGKYGIYTKVSEYVNWIKNKTKLT", "readout_qualifier": ">", "endpoint_value": 517}
{"protein": "FIXa-Y155F/K247N/N249S/N260S (protein) chain 1: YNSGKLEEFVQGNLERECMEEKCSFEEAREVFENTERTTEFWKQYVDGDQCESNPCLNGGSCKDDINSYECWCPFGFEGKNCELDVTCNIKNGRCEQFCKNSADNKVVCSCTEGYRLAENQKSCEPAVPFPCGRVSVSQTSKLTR chain 2: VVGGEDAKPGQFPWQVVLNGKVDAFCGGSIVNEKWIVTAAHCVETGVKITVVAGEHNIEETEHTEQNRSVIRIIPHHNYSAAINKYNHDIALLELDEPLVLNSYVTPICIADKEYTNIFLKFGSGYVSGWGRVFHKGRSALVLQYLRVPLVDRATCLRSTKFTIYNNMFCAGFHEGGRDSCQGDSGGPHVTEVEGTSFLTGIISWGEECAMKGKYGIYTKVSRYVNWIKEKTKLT", "readout_qualifier": "=", "endpoint_value": 7.9}
{"protein": "FIXa-K247N/N249S/N260S/R318Y/R338E/R403E/E410N (protein) chain 1: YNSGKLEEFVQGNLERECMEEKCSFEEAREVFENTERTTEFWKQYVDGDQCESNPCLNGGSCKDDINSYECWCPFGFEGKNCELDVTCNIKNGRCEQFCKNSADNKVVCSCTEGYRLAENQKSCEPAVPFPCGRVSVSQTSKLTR chain 2: VVGGEDAKPGQFPWQVVLNGKVDAFCGGSIVNEKWIVTAAHCVETGVKITVVAGEHNIEETEHTEQNRSVIRIIPHHNYSAAINKYNHDIALLELDEPLVLNSYVTPICIADKEYTNIFLKFGSGYVSGWGRVFHKGYSALVLQYLRVPLVDRATCLESTKFTIYNNMFCAGFHEGGRDSCQGDSGGPHVTEVEGTSFLTGIISWGEECAMKGKYGIYTKVSEYVNWIKNKTKLT", "readout_qualifier": "=", "endpoint_value": 288}
